# credit: the supplement of paper PMC7366291

Listed here: items and their measured pronephric angle neck segment.
test system: Danio rerio Tg(wt1b:EGFP) embryo, pronephros; test: pronephric angle neck segment to proximal convoluted tubule (mean of left and right), fold change vs DMSO control; higher = larger pronephric angle; conditions: 25 µM; exposure: 24-48 hpf
Counter-ions that a name gives are not always drawn.

MOLECULE	pronephric angle neck segment
COc1ccccc1N1CCN(CCCCNC(=O)c2ccc3ccccc3c2)CC1	0.969
CCCCN(CCCC)CCC(O)c1cc2c(Cl)cc(Cl)cc2c2cc(C(F)(F)F)ccc12 (stereo not given) [Halofantrine hydrochloride]	1.32
CC[C@H](C)[C@H](N)C1=N[C@H](C(=O)N[C@@H](CC(C)C)C(=O)N[C@H](CCC(=O)O)C(=O)N[C@H](C(=O)N[C@H]2CCCCNC(=O)[C@H](CC(N)=O)NC(=O)[C@@H](CC(=O)O)NC(=O)[C@H](Cc3cnc[nH]3)NC(=O)[C@@H](Cc3ccccc3)NC(=O)[C@H]([C@@H](C)CC)NC(=O)[C@@H](CCCN)NC2=O)[C@@H](C)CC)CS1	1.01
Cc1[nH]c(=O)c(C#N)cc1-c1ccncc1	0.976
CS(=O)(=O)OCCCCOS(C)(=O)=O	0.943
COc1ccc2[nH]cc(CCNC(C)=O)c2c1	1.02
O=C1CN(/N=C/c2ccc([N+](=O)[O-])o2)C(=O)N1	0.968
CC(=O)Nc1c(I)c(NC(C)=O)c(I)c(C(=O)O)c1I [Diatrizoic acid dihydrate]	1.05
CCCCN(CCCC)CCCOC(=O)c1ccc(N)cc1	0.991
CCOC(=O)O[C@]1(C(=O)COC(=O)CC)CC[C@H]2[C@@H]3CCC4=CC(=O)C=C[C@]4(C)[C@H]3[C@@H](O)C[C@@]21C [Prednicarbate]	1.03
C/C(=C(\CCOP(=O)(O)O)SC(=O)c1ccccc1)N(C=O)Cc1cnc(C)nc1N	0.949
CC[C@H]1OC(=O)[C@H](C)[C@@H](O[C@H]2C[C@@](C)(OC)[C@@H](O)[C@H](C)O2)[C@H](C)[C@@H](O[C@@H]2O[C@H](C)C[C@H](N(C)C)[C@H]2O)[C@](C)(O)C[C@@H](C)C(=O)[C@H](C)[C@@H](O)[C@]1(C)O	0.949
CCc1nc(N)nc(N)c1-c1ccc(Cl)cc1	0.974
COC(c1ccccc1)(c1ccccc1)[C@H](Oc1nc(C)cc(C)n1)C(=O)O	1.09
CCCc1cc(=O)[nH]c(=S)[nH]1	1.02

====

system: Danio rerio Tg(wt1b:EGFP) embryo, pronephros; assay: fraction of imaged embryos annotated as normal kidney; higher = less nephrotoxic; extreme values may be limits of the assay; settings: 25 µM; exposure: 24-48 hpf
READOUT LABEL: fraction of imaged embryos annotated as normal kidney

> print(dat)
                                   compound  reported.value
1  CC1CS(=O)(=O)CCN1/N=C/c1ccc([N+](=O)[O-])o1 (centres undefined) [Nifurtimox]           0.917
2  CC(=O)[C@@]12O[C@](C)(c3ccccc3)O[C@@H]1C[C@H]1[C@@H]3CCC4=CC(=O)CC[C@]4(C)[C@H]3CC[C@@]12C [Algestone acetophenide]             0.5
3  Cn1c([N+](=O)[O-])cnc1COC(N)=O [Ronidazole]            0.75
4  CN(CCOc1ccc(NS(C)(=O)=O)cc1)CCc1ccc(NS(C)(=O)=O)cc1 [Dofetilide]           0.583
